Test system: HT29 colon
Assay: NCI-60 one-dose screen, 48 h
Settings: 10 µM unless noted
Compounds without any hit were thinned out: in the full panel of roughly 83,000, 20% have a hit. Calls of active or inactive are those of the source. Rule for the calls: active = growth percent below 10; inactive = the rest.
Labels: label 1 = active, label 0 = inactive

>>> group("O=C1CC(Sc2n[nH]c(-c3ccncc3)n2)C(=O)N1c1ccc(Br)cc1 (centres undefined)")
"label 0"
>>> group("COc1cc2c(c(OC)c1OC)C(=O)CC(c1cccc(NC(=O)c3cccc([N+](=O)[O-])c3)c1)O2 (centres undefined)")
"label 0"
>>> group("O=C1NC(=O)c2c1c1c3cc(Br)ccc3[nH]c1c1oc3ccc(F)cc3c21")
"label 0"
>>> group("CCN(CC)c1ccnc(CNCCSC(c2ccccc2)(c2ccccc2)c2ccc(OC)cc2)c1")
"label 1"
>>> group("CC(=O)c1c(N)c(C#N)cn1-c1ccc(Cl)cc1Cl")
"label 0"
>>> group("Cn1cc(-c2cc3nc(-c4cn(C)c5ncccc45)cc(N)n3n2)c2ccccc21")
"label 1"
>>> group("CC(C)CSc1nc(NCCc2c[nH]c3ccccc23)c(C#N)c(-c2ccccc2)n1")
"label 1"
>>> group("O=C(NN1C(=O)/C(=C/C=C/c2ccc([N+](=O)[O-])o2)SC1=S)c1ccccc1O")
"label 1"
>>> group("CC1(C)CC[C@]2(C(=O)Nc3ccc(Br)cc3)CC[C@]3(C)C(=CCC4[C@@]5(C)C[C@@H](O)[C@H](O)[C@@](C)(CO)C5CC[C@]43C)C2C1 (some centres undefined)")
"label 1"
>>> group("COc1cc2oc(-c3cccc(C(=O)Nc4ccc(Cl)cc4)c3)cc(=O)c2c(OCCNC(=O)[C@@H](N)CCC(=O)O)c1OC")
"label 0"
>>> group("COc1c(F)ccc(C(=O)Nc2ccc3nc(NC(=O)C4CCCN(S(=O)(=O)c5cccc(Cl)c5)C4)sc3c2)c1F (centres undefined)")
"label 0"
>>> group("O=C(NNc1nc2cc(F)ccc2n2c(C(=O)N3CCN(C4CC4)CC3)ccc12)c1ncccn1")
"label 0"
>>> group("CCOC(=O)C1=C(N)N(c2ccccc2)C2=C(C(=O)CC(C)(C)C2)C1c1ccc(Cl)cc1Cl (centres undefined)")
"label 0"
>>> group("N/C(=N\\c1nc2ccccc2s1)NC(=O)NCCCCCCO")
"label 0"
>>> group("O=C(O)c1cccc(-c2ccc(/C=N/NC(=O)c3[nH]c4ccc(Br)cc4c3-c3ccccc3)o2)c1")
"label 0"
>>> group("Cc1ccc(S(=O)(=O)c2nc(S(=O)(=O)c3ccc(C)cc3)c(N3CCC(O)CC3)s2)cc1")
"label 0"
>>> group("CC(C)c1ccc2c(N)c(C(=O)Nc3cccc(C(F)(F)F)c3)sc2n1")
"label 0"
>>> group("COc1c(F)ccc(C(=O)Nc2ccc3nc(NC(=O)C4CCCN(S(=O)(=O)c5ccc(Cl)cc5)C4)sc3c2)c1F (centres undefined)")
"label 0"
>>> group("C=C1CCC2C3(C)COC(c4cccc(F)c4)OC3CCC2(C)C1C/C=C1/C(=O)OCC1O (centres undefined)")
"label 1"
>>> group("N#Cc1c(-c2ccc(Cl)cc2)nc2n[nH]c(-c3ccc(Cl)cc3)c2c1-c1cccs1")
"label 0"
>>> group("COc1c(F)ccc(C(=O)Nc2ccc3nc(NC(=O)C4CCCN(S(=O)(=O)c5ccc(Br)c(F)c5)C4)sc3c2)c1F (centres undefined)")
"label 0"
>>> group("Cc1cc2nc3c4ccccc4n(CCCN(C)C)c3nc2cc1C")
"label 1"
>>> group("Cc1ccc([C@H]2C(C(=O)c3ccc(Cl)cc3)C3(N[C@@H]2c2ccccc2)C(=O)Nc2ccc(Br)cc23)cc1 (some centres undefined)")
"label 1"
>>> group("O=c1oc2ccccc2cc1-c1csc(N=Nc2c(O)[nH]c3ccc(Cl)cc23)n1")
"label 0"
>>> group("CC1=C(C(=O)c2ccccc2)C(c2cccc(Cl)c2Cl)n2c(nc3ccccc32)N1 (centres undefined)")
"label 0"
>>> group("COc1ccc(C(=O)/C=C/c2ccccc2Cl)cc1S(N)(=O)=O")
"label 0"
>>> group("COc1c(F)ccc(C(=O)Nc2ccc3nc(NC(=O)C4CCCN(S(=O)(=O)c5cccc(Br)c5)C4)sc3c2)c1F (centres undefined)")
"label 0"
>>> group("CSc1ccccc1NC(=O)c1ccc2nnn(/C(C#N)=C/c3ccccn3)c2c1")
"label 1"
>>> group("COc1cc(C2CC(c3cc(OC)c(OC)c(OC)c3)=NN2C(C)=O)ccc1OCc1ccc(F)cc1 (centres undefined)")
"label 0"
>>> group("CCCCSc1nc(Nc2ccc(S(N)(=O)=O)cc2)c(C#N)c(-c2cc(OC)c(OC)c(OC)c2)n1")
"label 0"
>>> group("COc1ccc(C(=O)/C=C/c2cccc(Br)c2)cc1S(N)(=O)=O")
"label 1"
>>> group("O=C(c1ccc(OCCN2CCOCC2)cc1)C1[C@H](c2ccc(Cl)cc2)[C@@H](c2ccccc2)NC12C(=O)Nc1ccc(Cl)cc12 (some centres undefined)")
"label 1"
>>> group("CCCCCCCS(=O)(=O)N1CCCC(C(=O)Nc2nc3ccc(NC(=O)c4ccc(F)c(OC)c4F)cc3s2)C1 (centres undefined)")
"label 0"
>>> group("COc1ccc(-c2nnc3ccc(N/N=C/c4ccc(C)cc4)nn23)cc1")
"label 0"
